Please find below IC50 data on Amine oxidase [flavin-containing] B (Bos taurus) compiled from the literature.
Sequence (P56560 whole entry): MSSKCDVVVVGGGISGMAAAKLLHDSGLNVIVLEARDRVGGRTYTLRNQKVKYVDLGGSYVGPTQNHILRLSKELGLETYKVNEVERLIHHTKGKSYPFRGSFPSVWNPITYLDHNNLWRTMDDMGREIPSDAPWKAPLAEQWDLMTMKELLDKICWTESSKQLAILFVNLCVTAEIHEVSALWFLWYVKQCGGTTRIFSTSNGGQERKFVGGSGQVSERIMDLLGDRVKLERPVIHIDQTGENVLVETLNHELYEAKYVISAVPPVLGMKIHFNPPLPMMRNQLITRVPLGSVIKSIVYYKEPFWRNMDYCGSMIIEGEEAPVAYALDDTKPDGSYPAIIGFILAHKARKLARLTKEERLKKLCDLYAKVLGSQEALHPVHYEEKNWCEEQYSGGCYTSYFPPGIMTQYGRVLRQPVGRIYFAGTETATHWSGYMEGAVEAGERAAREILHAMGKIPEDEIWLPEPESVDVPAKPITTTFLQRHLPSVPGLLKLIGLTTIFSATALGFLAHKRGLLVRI
PARAMETER MEASURED: IC50 (µM)

[ask] Hello, please tell me recorded IC50 for this one: CC(=O)N1N=C(c2ccc(O)cc2O)CC1c1ccc(Cl)cc1 (stereo not drawn)
[reply] 120

[ask] Hello, please tell me recorded IC50 for this one: CN(C)c1ccc(/C=N/Nc2nc3ccccc3nc2Cc2ccccc2)cc1
[reply] 880

[ask] Hello, please tell me recorded IC50 for this one: Clc1ccc(/C=N/Nc2nc3ccccc3nc2Cc2ccccc2)cc1
[reply] 84

[ask] Hello, please tell me recorded IC50 for this one: COC(=O)CCCNC(=O)C(=O)c1ccccc1NC(C)=O
[reply] 950

[ask] Hello, please tell me recorded IC50 for this one: c1ccc(Cc2nc3ccccc3n3cnnc23)cc1
[reply] 95

[ask] Hello, please tell me recorded IC50 for this one: COc1ccc(C2CC(c3ccc(O)cc3O)=NN2C(C)=O)cc1 (stereo not drawn)
[reply] 83

[ask] Hello, please tell me recorded IC50 for this one: COc1ccc(-c2nnc3c(C(=O)c4ccccc4)nc4ccccc4n23)cc1
[reply] 85

[ask] Hello, please tell me recorded IC50 for this one: CC(=O)N1N=C(c2ccc(O)cc2)CC1c1ccccc1Cl (stereo not drawn)
[reply] 89

A = COc1ccccc1C1CC(c2ccc(O)cc2O)=NN1C(C)=O (stereo in doubt; 11)
B = COc1ccc(/C=N/Nc2nc3ccccc3nc2Cc2ccccc2)cc1
C = c1ccc(Cc2nc3ccccc3n3c(-c4ccccc4)nnc23)cc1
[ask] Please list these compounds in decreasing order of IC50. Record the ranking as a list of labels in the requested order.
[reply] C, A, B
